# Test system: HOP-62 NSCLC
# protocol text: NCI tumour cell line growth inhibition, 48 h
observation type: TGI

Examples from the recorded data:
| compound | TGI |
| --- | --- |
| O=P1(Cc2ccccc2)c2ccccc2-c2ccccc21 | > 52.6 µM |
| CN(C)c1ccc(/C=C(\NC(=O)c2ccccc2)C(=O)NC(Cc2c[nH]c3ccccc23)C(=O)O)cc1 (stereo unspecified) | > 100 µM |
| COc1ccc2c3c1OC1C(OC)(OC)CC4(C=C2)CN(C)CCC314 (stereo unspecified) | > 100 µM |
| O=C(NC1(C(=O)O)CCCC1)c1ccccc1 | > 100 µM |
| N#C/C(=C\c1ccccc1)C(NO)Nc1ccccc1 (stereo unspecified) | > 100 µM |

Next, consider the following compound.
-- ask Query (compound): COc1ccc(-c2nn3ncccc3c2-c2ccnc(Nc3ccc4c(c3)OCCO4)n2)cc1 ; field requested: TGI
-- reply > 25 µM

Sourced from PubChem BioAssay (NCI)
